system: SF-539 CNS; experiment: NCI tumour cell line growth inhibition, 48 h
Where a SMILES comes first, the peptide text is derived from it. [ ]: non-standard residue; d: D form. Ac5c = NC1(C(=O)O)CCCC1
Task for the reader: assign each of the following compounds its reported TGI.

COMPOUND	TGI
CCCCCCCCCCn1cccc1/C=C/c1ccc(/C=C/c2cccn2CCCCCCCCCC)cc1	> 100 µM
CC1(C)CN=C(Nc2ccc(F)cc2)S1	> 100 µM
Cc1cc(C(C)C)cc(O)c(=O)c1	> 100 µM

// input: 5 compounds below; output: TGI for each
1. CC(=O)N(O)CCCCCNC(=O)CCC(=O)N(O)CCCCCNC(=O)CCC(=O)N(O)CCCCCN
2. Cc1cc(O)c(/C=N/c2nc(-c3ccc([N+](=O)[O-])cc3)cs2)c(=O)o1
3. COC(=O)C1(NC(=O)C(C)NC(=O)C(CCCCN)NC(=O)C(CC(C)C)NC(C)=O)CCCC1 (stereo not given) (Ac-LKA[Ac5c]-OMe; configuration not given here)
4. O=C(OCCOC(=O)c1ccc2c(c1)C1(SCCS1)c1ccccc1-2)c1ccc2c(c1)C1(SCCS1)c1ccccc1-2
5. COc1ccc(Oc2ccc3cc4c(cc3c2O)OCO4)c2cc(C)oc12

> 92.3 µM
> 100 µM
> 100 µM
> 100 µM
> 100 µM
